The entries below come with measured pIC50 values attached.
- SYSTEM: KRAS G12S (Homo sapiens (Human), UniProt P01116+P62937, G12S)
- Sequence (P01116-2 other isoform, or with tags, fused parts or gaps G12S, one chain of several): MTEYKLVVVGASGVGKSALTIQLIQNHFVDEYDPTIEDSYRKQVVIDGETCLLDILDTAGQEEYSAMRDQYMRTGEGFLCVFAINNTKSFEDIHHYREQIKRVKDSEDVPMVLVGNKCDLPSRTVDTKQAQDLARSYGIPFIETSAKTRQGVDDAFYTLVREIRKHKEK
- ASSAY_METHOD_TEXT: Ras-Raf (BRAF RBD) disruption / FRET / MOA assay, KRAS G12S
- Type: biochemical
- CONDITION_PARAMETERS: Ras-Raf disruption/FRET/MOA assay; class symbols; read-out: KRAS G12S FRET data IC50
- Protocol: The purpose of this biochemical assay is to measure the ability of test compounds to facilitate ternary complex formation between a nucleotide-loaded Ras isoform and cyclophilin A; the resulting ternary complex disrupts binding to a BRAF^RBD construct, inhibiting Ras signaling through a RAF effector. Compound is present in plate wells as a 10-point 3-fold dilution series starting at a final concentration of 30 μM. […]
pIC50: −log10 of the molar value.
METRIC: pIC50

1. C=CC(=O)N1CC[C@@](C#N)(C(=O)N(C)[C@H](C(=O)N[C@H]2Cc3cccc(c3)-c3ccc4c(c3)c(c(-c3cccnc3[C@H](C)OC)n4CC)CC(C)(C)COC(=O)[C@@H]3CCCN(N3)C2=O)C(C)C)C1 (atropisomer, axis not shown) [Example A444] :: 5.00 to 6.00
2. CCn1c(-c2cccnc2COC)c2c3cc(ccc31)-c1cc(O)cc(c1)C[C@H](NC(=O)[C@@H](C(C)C)N(C)C(=O)[C@H]1CCN(C(=O)C#CCN3CCOCC3)C1)C(=O)N1CCC[C@H](N1)C(=O)OCC(C)(C)C2 [Example A200] :: < 5.00
3. C=CC(=O)N1CC(OC[C@H](C(=O)N[C@H]2Cc3cccc(c3)-c3ccc4c(c3)c(c(-c3cccnc3[C@H](C)OC)n4CC(F)(F)F)CC(C)(C)COC(=O)[C@@H]3CCCN(N3)C2=O)C(C)C)C1 (atropisomer, axis not shown) [Example A344] :: 5.00 to 6.00
4. C=CC(=O)N1CC[C@@H]2[C@H]1CN2C(=O)N(C)[C@H](C(=O)N[C@H]1Cc2nc(cs2)-c2ccc3c(c2)c(c(-c2cccnc2[C@H](C)OC)n3CC)CC(C)(C)COC(=O)[C@@H]2CCCN(N2)C1=O)C(C)C (atropisomer, axis not shown) [Example A546] :: 5.00 to 6.00
5. C=CC(=O)N1CC[C@H](C(=O)N(C)[C@H](C(=O)N[C@H]2Cc3cccc(c3)-c3ccc4c(c3)c(c(-c3cc(C5CCN(C)CC5)cnc3[C@H](C)OC)n4CC)CC(C)(C)COC(=O)[C@@H]3CCCN(N3)C2=O)C(C)C)C1 (atropisomer, axis not shown) [Example A515] :: 6.00 to 7.00
6. C=CC(=O)N1CC[C@@]2(CCN2C(=O)N(C)[C@H](C(=O)N[C@H]2Cc3nc(cs3)-c3ccc4c(c3)c(c(-c3cccnc3[C@H](C)OC)n4CC)CC(C)(C)COC(=O)[C@@H]3CCCN(N3)C2=O)C(C)C)C1 (atropisomer, axis not shown) [Example A661] :: 6.00 to 7.00
7. C=CS(=O)(=O)N1CCC(C(=O)N(C)[C@H](C(=O)N[C@H]2Cc3cccc(c3)-c3ccc4c(c3)c(c(-c3cncnc3)n4CC)CC(C)(C)COC(=O)[C@@H]3CCCN(N3)C2=O)C(C)C)C1 (single isomer, unassigned) [Example A171] :: < 5.00
8. C=CC(=O)N1CC[C@H](C(=O)N(C)[C@H](C(=O)N[C@H]2Cc3cc(OC(C)=O)cc(c3)-c3ccc4c(c3)c(c(-c3ccccc3CN(C)C)n4CC)CC(C)(C)COC(=O)[C@@H]3CCCN(N3)C2=O)C(C)C)C1 [Example A059] :: < 5.00

---

The entries below come with measured IC50 values attached.
- SYSTEM: NRAS WT (Homo sapiens (Human), UniProt P01111+P62937)
- Sequence (P01111 whole entry, one chain of several): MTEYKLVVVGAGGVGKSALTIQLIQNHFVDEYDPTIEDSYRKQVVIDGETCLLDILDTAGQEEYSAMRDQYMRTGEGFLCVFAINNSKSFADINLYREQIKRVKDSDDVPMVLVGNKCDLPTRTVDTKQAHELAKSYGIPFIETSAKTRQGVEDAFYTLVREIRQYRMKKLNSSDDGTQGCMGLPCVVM
- ASSAY_METHOD_TEXT: Ras-Raf (BRAF RBD) disruption / FRET / MOA assay, NRAS WT
- Format: biochemical
- CONDITION_PARAMETERS: read-out: IC50* NRAS WT FRET data
METRIC: IC50

1) C=CC(=O)N1CC2(CCCN2C(=O)N(C)[C@H](C(=O)N[C@H]2Cc3nc(cs3)-c3ccc4c(c3)c(c(-c3cccnc3[C@H](C)OC)n4CC)CC(C)(C)COC(=O)[C@@H]3CCCN(N3)C2=O)C(C)C)C1 (atropisomer, axis not shown) [Example A667] :: 10 to 100 nM
2) CO[C@@H](C)c1ncccc1-c1c2c3cc(ccc3n1CC(F)(F)F)-c1nc(nn1C)C[C@H](NC(=O)[C@H](C(C)C)N(C)C(=O)C1(F)CCN(C(=O)C#CC(C)(C)N(C)C)CC1)C(=O)N1CCC[C@H](N1)C(=O)OCC(C)(C)C2 (atropisomer, axis not shown) [Example A577] :: 10 to 100 nM
3) C=CC(=O)N1CCOC2(CCN(C(=O)N(C)[C@H](C(=O)N[C@H]3Cc4cccc(n4)-c4ccc5c(c4)c(c(-c4cccnc4[C@H](C)OC)n5CC(F)(F)F)CC(C)(C)COC(=O)[C@@H]4CCCN(N4)C3=O)C(C)C)CC2)C1 (atropisomer, axis not shown) [Example A607] :: 100 to 1000 nM
4) CCn1c(-c2cccnc2[C@H](C)OC)c2c3cc(ccc31)-c1csc(n1)C[C@H](NC(=O)[C@H](C(C)C)N(C)C(=O)N1CCCOC13CN(C(=O)C#CC(C)(C)N(C)C)C3)C(=O)N1CCC[C@H](N1)C(=O)OCC(C)(C)C2 (atropisomer, axis not shown) [Example A666] :: > 10000 nM

---

- SYSTEM: K-Ras G12C (Homo sapiens (Human), UniProt P01116+P62937, G12C)
- Sequence (P01116-2 other isoform, or with tags, fused parts or gaps G12C): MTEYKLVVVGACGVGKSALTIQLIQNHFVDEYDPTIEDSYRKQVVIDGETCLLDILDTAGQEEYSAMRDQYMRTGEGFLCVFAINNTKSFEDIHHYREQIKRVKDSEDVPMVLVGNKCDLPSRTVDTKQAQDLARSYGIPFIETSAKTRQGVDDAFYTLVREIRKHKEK
- Sequence (P62937 whole entry): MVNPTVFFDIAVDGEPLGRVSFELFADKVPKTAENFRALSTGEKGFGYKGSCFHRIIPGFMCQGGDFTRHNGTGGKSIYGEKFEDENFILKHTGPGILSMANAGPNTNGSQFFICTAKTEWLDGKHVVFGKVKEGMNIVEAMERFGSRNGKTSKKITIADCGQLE
- ASSAY_METHOD_TEXT: Ras-Raf (BRAF RBD) disruption / FRET / MOA assay, KRAS G12C
- Format: biochemical
- CONDITION_PARAMETERS: KRAS G12C; Ras-Raf disruption/FRET/MOA assay; read-out: IC50* KRAS G12C FRET data
METRIC: IC50

1. C=CC(=O)N1CC2CCC1CN2C(=O)N(C)[C@H](C(=O)N[C@H]1Cc2nc(cs2)-c2ccc3c(c2)c(c(-c2cccnc2[C@H](C)OC)n3CC)CC(C)(C)COC(=O)[C@@H]2CCCN(N2)C1=O)C(C)C :: 100 to 1000 nM
2. C=CC(=O)N1CC[C@H](C(=O)N2CCCCC[C@H]2C(=O)N[C@H]2Cc3cccc(c3)-c3ccc4c(c3)c(c(-c3cccnc3[C@H](C)OC)n4CC)CC(C)(C)COC(=O)[C@@H]3CCCN(N3)C2=O)C1 (atropisomer, axis not shown) :: 1000 to 10000 nM
3. C=CC(=O)N(C)CCN1CCN(C(=O)N(C)[C@H](C(=O)N[C@H]2Cc3cccc(c3)-c3ccc4c(c3)c(c(-c3cccnc3[C@H](C)OC)n4CC)CC(C)(C)COC(=O)[C@@H]3CCCN(N3)C2=O)C(C)C)CC1 (atropisomer, axis not shown) :: 100 to 1000 nM
4. CCn1c(-c2cccnc2COC)c2c3cc(ccc31)-c1cc(O)cc(c1)C[C@H](NC(=O)[C@H](C(C)C)N(C)C(=O)[C@H]1CCC(C(=O)/C=C\CN(C)C)C1)C(=O)N1CCC[C@H](N1)C(=O)OCC(C)(C)C2 (stereo partly shown) [Example A161] :: 100 to 1000 nM

---

The entries below come with measured pIC50 values attached.
- SYSTEM: K-Ras G12C (Homo sapiens (Human), UniProt P01116+P62937, G12C)
- ASSAY_METHOD_TEXT: Ras-Raf (BRAF RBD) disruption / FRET / MOA assay, KRAS G12C
- Assay type: biochemical
- CONDITION_PARAMETERS: KRAS G12C; Ras-Raf disruption/FRET/MOA assay; read-out: IC50* KRAS G12C FRET data
pIC50: −log10 of the molar value.
METRIC: pIC50

1. C=CC(=O)N1CC[C@]2(CCN2C(=O)N(C)[C@H](C(=O)N[C@H]2Cc3nc(cs3)-c3ccc4c(c3)c(c(-c3cccnc3[C@H](C)OC)n4CC)CC(C)(C)COC(=O)[C@@H]3CCCN(N3)C2=O)C(C)C)C1 (atropisomer, axis not shown) [Example A662] :: 7.00 to 8.00
2. CCn1c(-c2cccnc2COC)c2c3cc(ccc31)-c1cc(O)cc(c1)C[C@H](NC(=O)[C@H](C(C)C)N(C)C(=O)[C@H]1C[C@@H](C)N(C(=O)C#CCN(C)C)C1)C(=O)N1CCC[C@H](N1)C(=O)OCC(C)(C)C2 [Example A175] :: > 8.00
3. CCn1c(-c2cccnc2[C@H](C)OC)c2c3cc(ccc31)-c1csc(n1)C[C@H](NC(=O)[C@H](C(C)C)N(C)C(=O)N1C[C@@H]3CN(C(=O)C#CC(C)(C)N(C)C)CC[C@@H]31)C(=O)N1CCC[C@H](N1)C(=O)OCC(C)(C)C2 (atropisomer, axis not shown) [Example A625] :: 6.00 to 7.00
4. CCn1c(-c2cccnc2)c2c3cc(ccc31)-c1cccc(c1)C[C@H](NC(=O)[C@H](C(C)C)N(C)C(=O)[C@H]1CCN(C(=O)C#CCN3CCOCC3)C1)C(=O)N1CCC[C@H](N1)C(=O)OCC(C)(C)C2 [Example A195] :: 6.00 to 7.00
